Catalogue of pIC50 values
species on record: Homo sapiens; assay: Inhibition of ADP-induced aggregation of human blood platelets in the presence of fibrinogen.; type: functional
Peptide text beside a SMILES is read from it. * marks the point of attachment. Cbz = O=C(OCc1ccccc1)*
// pIC50: -log10(molar conc.)

{"columns": ["Compound", "Measurement Kind", "Reported Result"],
 "data": [
  ["N=C(N)NCCC[C@H](NC(=O)OCc1ccccc1)C(=O)N[C@H]1CCN([C@@H](CC(=O)O)C(=O)N[C@@H](Cn2ccc3ccccc32)C(=O)O)C1=O", "pIC50", 5.00],
  ["CC(C)[C@H](NC(=O)[C@H](CC(=O)O)NC(=O)CNC(=O)[C@H](CCCN=C(N)N)NC(=O)OCc1ccccc1)C(=O)O (Cbz-RGDV-OH)", "pIC50", 5.51],
  ["N=C(N)c1ccc(CC(=O)N[C@H]2CCN([C@@H](CC(=O)O)C(=O)N[C@@H](CC34CC5CC(CC(C5)C3)C4)C(=O)O)C2=O)cc1", "pIC50", 7.00]
]}

// switching to the query compound
Asked: Give a short answer stating reported pIC50 for COC(=O)[C@H](CC12CC3CC(CC(C3)C1)C2)NC(=O)[C@H](CC(=O)O)N1CC[C@H](NC(=O)Cc2ccc(C(=N)N)cc2)C1=O .
Given back: 6.44

* * *

molecular target: Integrin alpha-IIb/beta-3 (Homo sapiens, UniProt P05106+P08514); experiment: Inhibition of fibrinogen binding to purified immobilized alpha IIb beta-3 integrin isolated from membranes of human blood platelets.
Sequence (P05106 27-788 limits assumed): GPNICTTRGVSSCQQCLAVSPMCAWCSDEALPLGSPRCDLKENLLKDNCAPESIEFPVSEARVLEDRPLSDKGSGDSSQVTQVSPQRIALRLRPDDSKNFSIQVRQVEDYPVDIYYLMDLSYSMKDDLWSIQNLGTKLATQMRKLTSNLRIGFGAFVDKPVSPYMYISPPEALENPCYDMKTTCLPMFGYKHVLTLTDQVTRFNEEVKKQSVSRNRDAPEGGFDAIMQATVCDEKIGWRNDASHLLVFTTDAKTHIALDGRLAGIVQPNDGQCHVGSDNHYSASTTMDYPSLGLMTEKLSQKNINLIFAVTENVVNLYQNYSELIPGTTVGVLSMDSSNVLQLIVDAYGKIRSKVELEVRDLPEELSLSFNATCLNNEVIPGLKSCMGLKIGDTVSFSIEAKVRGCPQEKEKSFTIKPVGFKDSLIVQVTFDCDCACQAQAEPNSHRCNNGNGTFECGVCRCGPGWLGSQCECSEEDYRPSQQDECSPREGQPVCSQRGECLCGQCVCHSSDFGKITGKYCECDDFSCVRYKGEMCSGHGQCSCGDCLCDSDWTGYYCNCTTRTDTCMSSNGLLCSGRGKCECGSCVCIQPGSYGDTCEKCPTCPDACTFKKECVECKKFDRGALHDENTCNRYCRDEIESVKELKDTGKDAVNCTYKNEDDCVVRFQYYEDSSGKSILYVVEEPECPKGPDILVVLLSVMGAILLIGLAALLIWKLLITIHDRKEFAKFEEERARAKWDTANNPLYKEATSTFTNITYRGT
Sequence (P08514 32-887 limits assumed): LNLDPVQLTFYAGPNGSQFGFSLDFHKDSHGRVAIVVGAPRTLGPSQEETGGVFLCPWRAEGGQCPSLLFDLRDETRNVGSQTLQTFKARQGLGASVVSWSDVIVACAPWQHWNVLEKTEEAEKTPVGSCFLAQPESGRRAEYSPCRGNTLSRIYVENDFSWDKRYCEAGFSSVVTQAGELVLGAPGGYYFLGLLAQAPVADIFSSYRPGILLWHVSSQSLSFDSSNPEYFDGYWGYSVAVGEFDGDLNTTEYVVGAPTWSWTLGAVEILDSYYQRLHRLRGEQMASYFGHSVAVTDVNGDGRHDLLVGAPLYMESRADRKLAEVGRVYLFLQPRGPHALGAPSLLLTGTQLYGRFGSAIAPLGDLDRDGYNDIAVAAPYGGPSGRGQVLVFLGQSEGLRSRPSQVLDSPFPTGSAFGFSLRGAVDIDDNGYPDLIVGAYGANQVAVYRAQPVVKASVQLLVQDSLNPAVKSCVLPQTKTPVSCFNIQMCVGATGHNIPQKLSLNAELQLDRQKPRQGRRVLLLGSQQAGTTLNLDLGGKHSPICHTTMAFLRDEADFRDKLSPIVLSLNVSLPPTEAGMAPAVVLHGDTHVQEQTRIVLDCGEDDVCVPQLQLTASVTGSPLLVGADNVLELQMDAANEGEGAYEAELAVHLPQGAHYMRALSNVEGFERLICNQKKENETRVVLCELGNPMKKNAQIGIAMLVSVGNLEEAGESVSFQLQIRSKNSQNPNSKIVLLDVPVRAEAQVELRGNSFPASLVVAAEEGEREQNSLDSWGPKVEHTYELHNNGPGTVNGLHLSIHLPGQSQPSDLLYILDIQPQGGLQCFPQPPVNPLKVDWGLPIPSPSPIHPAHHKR
Sequence (P08514 891-1039 limits assumed): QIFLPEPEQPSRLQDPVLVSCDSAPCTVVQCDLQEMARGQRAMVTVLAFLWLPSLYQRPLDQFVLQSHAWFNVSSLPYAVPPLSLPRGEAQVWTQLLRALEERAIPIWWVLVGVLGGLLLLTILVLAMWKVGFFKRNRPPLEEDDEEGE
Threshold 0.04 µM. IC50 below it: class 1. IC50 at it or above: class 0.

Asked: Answer whether the compound COC(=O)[C@H](Cc1ccccc1)NC(=O)[C@H](CC(=O)O)NC(=O)[C@H](C)NC(=O)[C@H](CCCNC(=N)N)NC(=O)OCc1ccccc1 has IC50 strictly less than 0.04 µM
Given back: class 0

Asked: Answer whether the compound N=C(N)NCCC[C@H](NC(=O)OCc1ccccc1)C(=O)N[C@H]1CCN([C@@H](CC(=O)O)C(=O)N[C@@H](Cn2ccc3ccccc32)C(=O)O)C1=O has IC50 strictly less than 0.04 µM
Given back: class 0

Asked: Answer whether the compound N=C(N)c1ccc(CC(=O)N[C@H]2CCN([C@@H](CC(=O)O)C(=O)N[C@@H](CC34CC5CC(CC(C5)C3)C4)C(=O)O)C2=O)cc1 has IC50 strictly less than 0.04 µM
Given back: class 1

* * *

Catalogue of pIC50 values
species: Homo sapiens; experiment: Inhibition of ADP-induced aggregation of human blood platelets in the presence of fibrinogen.; type: functional
// pIC50: -log10(molar conc.)

Example entries and their recorded answers appear below.
{"columns": ["Compound", "pIC50"],
 "data": [
  ["COC(=O)[C@H](Cn1ccc2ccccc21)NC(=O)[C@H](CC(=O)O)N1CC[C@H](NC(=O)Cc2ccc(C(=N)N)cc2)C1=O", 5.36],
  ["CC(C)C[C@H](NC(=O)[C@H](CC(=O)O)N1CC[C@H](NC(=O)[C@H](CCCN=C(N)N)NC(=O)OCc2ccccc2)C1=O)C(=O)O", 4.89],
  ["N=C(N)c1ccc(CC(=O)N[C@H]2CCN([C@@H](CC(=O)O)C(=O)N[C@H](C(=O)O)C34CC5CC(CC(C5)C3)C4)C2=O)cc1", 7.40],
  ["COC(=O)[C@H](Cn1ccc2ccccc21)NC(=O)[C@H](CC(=O)O)N1CC[C@H](NC(=O)[C@H](CCCN=C(N)N)NC(=O)OCc2ccccc2)C1=O", 4.60]
]}

Asked: Give a short answer stating reported pIC50 for COC(=O)[C@H](CC12CC3CC(CC(C3)C1)C2)NC(=O)[C@H](CC(=O)O)N1CC[C@H](NC(=O)[C@H](CCCN=C(N)N)NC(=O)OCc2ccccc2)C1=O .
Given back: 5.40

Source listed as ChEMBL document CHEMBL1127009.
